Provide the reported composite z-score of each item.
# study.system: Follistatin-related protein 3 (Homo sapiens) (UniProt O95633)
# Sequence (O95633 whole entry, looked up): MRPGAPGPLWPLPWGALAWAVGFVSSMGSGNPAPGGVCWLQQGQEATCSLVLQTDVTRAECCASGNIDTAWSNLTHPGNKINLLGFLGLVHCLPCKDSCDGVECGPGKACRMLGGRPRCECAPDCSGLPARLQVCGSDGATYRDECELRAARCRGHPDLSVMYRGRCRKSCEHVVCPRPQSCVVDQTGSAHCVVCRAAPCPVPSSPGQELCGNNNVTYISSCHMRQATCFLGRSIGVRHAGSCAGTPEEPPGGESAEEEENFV
# experimental.protocol: FSTL3 binders on small-molecule microarrays, primary screen, biochemical, small-molecule microarray, 635 nm fluorescence (AID 1105);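 further: score merges emission near 667 nm and signal to noise per printed spot across three slides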
# conditions.used: FSTL3 binding, higher = more signal

## Task Tell me its composite z-score given COCCOC(=O)N1C(=O)[C@@]2(c3cc(C#CCNC(N)=O)ccc31)[C@H](C(=O)Nc1nc3ccccc3s1)[C@H]1C(=O)O[C@H](c3ccccc3)[C@H](c3ccccc3)N1[C@@H]2c1ccc(OCCO)cc1 as the entry.
## Result 0.963

## Task Tell me its composite z-score given COC(=O)[C@@]1(Cc2ccc(OC)cc2)[C@H]2c3cc(C(=O)N4CCCC4)n(CCN4CNCC4=O)c3C[C@H]2CN1C(=O)c1ccccc1 as the entry.
## Result -0.711

## Task Tell me its composite z-score given [N-]=[N+]=Nc1ccccc1[C@@H]1OC(c2ccc(OCCCO)cc2)=N[C@]1(CCS(=O)(=O)c1ccccc1)C(N)=O as the entry.
## Result 1.22

## Task Tell me its composite z-score given COC(=O)c1c(CC[C@@H](CO)NC(=O)NCCn2cc(C3(O)CCCC3)nn2)oc(C(C)=O)c1C(=O)OC as the entry.
## Result -0.234

## Task Tell me its composite z-score given C=CCC(OC(C)=O)[C@@H]1[C@@H](N(Cc2ccc(-c3ccccc3)cc2)C(=O)c2cccc3ccccc23)c2cc(OCCCO)ccc2N1C(=O)c1ccc(-c2ccccc2)cc1 (some centres undefined) as the entry.
## Result 0.269

## Task Tell me its composite z-score given CC(C)NC(=O)[C@@]1(C)c2ccccc2C(=O)N(Cc2cc(C(F)(F)F)cc(C(F)(F)F)c2)[C@H]1c1ccc(CO)cc1 as the entry.
## Result -1.13

## Task Tell me its composite z-score given NC(=O)N1C(=O)C2C(C1=O)C1C=C(c3ccc(CO)cc3)C2C(c2cccs2)N1Cc1cccc(OC(F)(F)F)c1 (centres undefined) as the entry.
## Result 0.122

## Task Tell me its composite z-score given O=C1C2C=CC(C(O)CCc3ccccc3)N(Nc3ccccc3F)C2C(=O)N1c1ccccc1 (centres undefined) as the entry.
## Result 1.31

## Task Tell me its composite z-score given NCCCCCCNC(=O)[C@@H]1C[C@@H]2C(=O)NCC(=O)N2[C@@H]1c1ccc(O)cc1 as the entry.
## Result 1.3

## Task Tell me its composite z-score given O=C1O[C@H](c2ccccc2)[C@H](c2ccccc2)N2[C@H]1[C@@H](C(=O)N1CCCCCCC1)[C@]1(C(=O)Nc3ccc(C#CCCO)cc31)[C@H]2c1ccccc1OCCO as the entry.
## Result 1.79

## Task Tell me its composite z-score given CCCC[C@@H]1C[C@H]1[C@@H](NC(=O)C(C)(C)C)c1ccc(C(F)(F)F)cc1 as the entry.
## Result -1.63

## Task Tell me its composite z-score given COCCCNC(=O)[C@@H]1c2ccccc2C(=O)N(Cc2ccccc2Cl)[C@H]1c1ccc(CO)cc1 as the entry.
## Result 0.715

## Task Tell me its composite z-score given C=C(CC1([C@@H](NP(=O)(c2ccccc2)c2ccccc2)[C@H]2C[C@@H]2CCCC)CC1)c1ccccc1 as the entry.
## Result 0.438

## Task Tell me its composite z-score given CO[C@H]1O[C@H](CO)[C@@H](OC(=O)Nc2ccc(Oc3ccccc3)cc2)[C@H](OC(=O)Nc2ccc3c(c2)OCO3)[C@H]1OC(=O)Nc1ccc2c(c1)OCO2 as the entry.
## Result 1.2

* * *

# experimental.protocol: binders of probe aFSTL3 on microarray, primary screen, stem cell growth factor project, biochemical, small-molecule microarray, fluorescence 635/667 (AID 1064);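 further: measures binding of the biotinylated anti-FSTL3 antibody to printed compounds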
# conditions.used: higher = more signal
property.label: composite z-score
Respond numerically, and do not add a unit to the figure.

## Task Tell me its composite z-score given CC(C)C(CO)N1C(=O)[C@@H]2C3C(=O)OCCC/C=C\[C@H]3OC23C=CCN(CCN2CCOCC2)C(=O)[C@@H]13 (some centres not stated) as the entry.
## Result -0.364

## Task Tell me its composite z-score given O=C1C[C@]2(c3ccc([N+](=O)[O-])cc3)C(=O)N(CC(F)(F)F)c3cc(CO)ccc3[C@H]2N1C1CCCCC1 as the entry.
## Result 0.342

## Task Tell me its composite z-score given COC(=O)[C@]1(CCC(=O)OC(C)(C)C)N=C(c2ccc(OCCCO)cc2)O[C@@H]1c1ccccc1CN=[N+]=[N-] as the entry.
## Result 0.995

## Task Tell me its composite z-score given C=CCN1C(=O)[C@]2(O[C@H](CCn3cc([C@H](O)c4ccccc4)nn3)[C@@H]([Si](C)(C)c3ccc(OC)cc3)[C@@H]2C)c2ccccc21 as the entry.
## Result 0.202

## Task Tell me its composite z-score given COC(=O)C[C@H]1O[C@]2(C(=O)N(C)c3ccccc32)[C@@H](C)[C@@H]1[Si](C)(C)F as the entry.
## Result -0.54

## Task Tell me its composite z-score given CCOC(=O)C[C@H]1[C@H](OC(=O)c2ccc(C(=O)c3ccccc3)cc2)[C@@H](NC(=O)c2ccccc2)c2cc(OCCCO)ccc2N1C(=O)Cc1ccc(OC)cc1 as the entry.
## Result 0.0814

## Task Tell me its composite z-score given O=C1[C@@]23C=C(Br)[C@H](C[C@@H]2CCOC3)[C@@]12CO2 as the entry.
## Result -0.655

* * *

# experimental.protocol: binders of probe aFST on microarray, primary screen, stem cell growth factor project, biochemical, small-molecule microarray, fluorescence 635/667 (AID 1086);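 further: score merges 667 nm fluorescence with signal-to-noise of each printed compound spot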
# conditions.used: higher = more signal
Quick rule for you: composite z-score at 0.2 or higher means Condition met, lower means Condition not met.

## Task Evaluate COCC(=C=CC[C@@H](O)c1cccc(OCCO)c1)C[C@@H](O)c1ccccn1 : composite z-score at minimum 0.2?
## Result Condition not met

## Task Evaluate CC(C)=CCN[C@H](CO)c1ccccc1 : composite z-score at minimum 0.2?
## Result Condition not met

## Task Evaluate CCCCN1CC=CC23O[C@@H]4C=CCCOC(=O)C4[C@H]2C(=O)N(CCCCCCO)[C@@H]3C1=O (stereo partly specified) : composite z-score at minimum 0.2?
## Result Condition not met

## Task Evaluate COc1cc2c(cc1O)C(c1cccs1)N(C)CC2 (stereo unspecified) : composite z-score at minimum 0.2?
## Result Condition not met

## Task Evaluate O=C1NC(=O)C2C1C=CC(C(O)c1cccs1)N2Nc1ccc(Cl)cc1Cl (stereo unspecified) : composite z-score at minimum 0.2?
## Result Condition not met

## Task Evaluate COc1ccc(C(O)C2C=CC3C(=O)N(Cc4ccccc4)C(=O)C3N2n2cnnc2)cc1OCc1ccccc1 (stereo unspecified) : composite z-score at minimum 0.2?
## Result Condition met

## Task Evaluate CC(C)N1C(=O)c2ccccc2[C@](C)(C(=O)NCCN2CCOCC2)[C@@H]1c1ccc(CO)cc1 : composite z-score at minimum 0.2?
## Result Condition not met

## Task Evaluate COCCOC(=O)N1C(=O)[C@@]2(c3ccccc31)[C@H](c1ccc(O)cc1)N1[C@H](c3ccccc3)[C@H](c3ccccc3)OC(=O)[C@H]1[C@@H]2C(=O)Nc1nc2ccccc2s1 : composite z-score at minimum 0.2?
## Result Condition met

## Task Evaluate CCC[C@@H]1C[C@@]1(CCC)[C@@H](NS(=O)(=O)c1cccc2cccnc12)c1ccc(Cl)cc1 : composite z-score at minimum 0.2?
## Result Condition met

## Task Evaluate COc1cccc(-c2cccc(=O)o2)c1 : composite z-score at minimum 0.2?
## Result Condition met

## Task Evaluate COc1ccc(CCNC(=O)[C@@]2(Sc3ccc(C)cc3)CC(=O)N(C(C)C)[C@@H]2c2ccc(CO)cc2I)cc1 : composite z-score at minimum 0.2?
## Result Condition met

## Task Evaluate CC(C)CNC(=O)[C@@]1(Cc2ccccc2I)c2ccccc2C(=O)N(C2CCCCC2)[C@H]1c1ccc(CO)cc1 : composite z-score at minimum 0.2?
## Result Condition met

## Task Evaluate C=CCNC(=O)[C@@H]1[C@H]2C(=O)O[C@H](c3ccccc3)[C@H](c3ccccc3)N2[C@H](c2ccccc2OCCO)[C@@]12C(=O)N(C(=O)OCCOC)c1ccccc12 : composite z-score at minimum 0.2?
## Result Condition met

## Task Evaluate COCCOC(=O)N1C(=O)[C@@]2(c3ccccc31)[C@H](C(=O)N1CCc3cc(OC)c(OC)cc3C1)[C@H]1C(=O)O[C@H](c3ccccc3)[C@H](c3ccccc3)N1[C@@H]2c1ccc(OCCO)cc1 : composite z-score at minimum 0.2?
## Result Condition met

## Task Evaluate COC(=O)[C@@]1(Cc2ccc(F)cc2)[C@H]2c3cc(C(=O)N(C)C)n(Cc4cc(F)c(F)c(F)c4)c3C[C@H]2CN1C(=O)c1ccccc1 : composite z-score at minimum 0.2?
## Result Condition met

## Task Evaluate C=C(C)[C@@H]1CC=C(C(O)C2C=CC3C(=O)N(c4ccccc4)C(=O)C3N2Nc2ccccc2)CC1 (stereo partly specified) : composite z-score at minimum 0.2?
## Result Condition met
